Target System: CYP2A6 (Homo sapiens, UniProt P11509, K28S/Q25K/Q26K/R27T/W24A)
Sequence (P11509 with tags, fused parts or gaps limits assumed, stated change not applied): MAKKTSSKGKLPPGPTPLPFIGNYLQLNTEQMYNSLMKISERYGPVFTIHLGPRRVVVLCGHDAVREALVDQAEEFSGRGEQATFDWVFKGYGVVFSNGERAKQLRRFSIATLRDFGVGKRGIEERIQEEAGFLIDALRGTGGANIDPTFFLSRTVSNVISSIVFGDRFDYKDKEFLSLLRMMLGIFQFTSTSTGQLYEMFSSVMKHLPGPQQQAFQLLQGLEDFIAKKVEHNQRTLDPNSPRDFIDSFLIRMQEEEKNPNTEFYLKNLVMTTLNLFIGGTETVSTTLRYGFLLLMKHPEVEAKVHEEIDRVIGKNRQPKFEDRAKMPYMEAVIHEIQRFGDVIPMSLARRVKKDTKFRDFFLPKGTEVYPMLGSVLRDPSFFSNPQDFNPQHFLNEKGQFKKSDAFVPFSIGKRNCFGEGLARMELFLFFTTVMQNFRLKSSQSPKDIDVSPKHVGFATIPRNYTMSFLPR
Assay Info: biochemical
Recorded Endpoint: Kd (µM)
Just the number in µM, nothing appended.

Any idea what its Kd is? The compound is O=C/C(Br)=C/c1ccccc1
8.2

What value of Kd has been recorded for this entry: O=CC(Cl)=Cc1ccccc1
9.6

What does the data say about its Kd? Entry: O=C/C=C/c1c(F)cccc1F
7.8

// provenance: patent US11865086B2
